# system_name: human CYP17 (Homo sapiens, UniProt P05093)
# Sequence (P05093 whole entry): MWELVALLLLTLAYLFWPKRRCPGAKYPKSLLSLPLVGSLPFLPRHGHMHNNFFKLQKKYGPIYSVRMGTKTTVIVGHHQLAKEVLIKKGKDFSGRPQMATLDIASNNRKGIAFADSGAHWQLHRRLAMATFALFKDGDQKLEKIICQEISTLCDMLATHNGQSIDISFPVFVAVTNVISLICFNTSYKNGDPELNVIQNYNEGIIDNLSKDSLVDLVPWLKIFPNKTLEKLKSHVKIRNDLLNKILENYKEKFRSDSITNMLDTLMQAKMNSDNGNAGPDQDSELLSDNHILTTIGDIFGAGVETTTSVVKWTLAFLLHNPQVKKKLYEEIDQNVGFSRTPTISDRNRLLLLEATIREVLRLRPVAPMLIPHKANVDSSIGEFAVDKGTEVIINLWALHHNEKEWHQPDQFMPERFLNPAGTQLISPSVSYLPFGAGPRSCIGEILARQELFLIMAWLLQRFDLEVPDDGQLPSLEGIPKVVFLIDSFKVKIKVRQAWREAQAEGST
# test_protocol: CYP17 inhibition assay in yeast microsomes overexpressing human CYP17
# Assay type: biochemical
# test_parameters: yeast microsomes expressing human CYP17, 3H3-17α-hydroxypregnenolone substrate, 60 minutes at 37° C.
pIC50: −log10 of the molar value.
As shown below, each of these compounds has a reported pIC50 value.

Below: 9 compounds and their reported pIC50.
compound="CC(c1ccc(-c2ccc(=O)n(C)c2)s1)n1ccnc1 (stereo not shown)" val="5.00 to 6.70"
compound="CC(c1ccc(-c2ccc(O)cc2)s1)n1ccnc1 (stereo not shown)" val="6.70 to 7.30"
compound="CCC(c1ccc(-c2ccccc2O)cn1)n1ccnc1 (stereo not shown)" val="6.70 to 7.30"
compound="CCC(c1cnc(-c2ccc(OC)cc2)s1)n1ccnc1 (stereo not shown)" val="5.00 to 6.70"
compound="CCC(c1ccc(-c2cccc(O)c2)cn1)n1ccnc1 (stereo not shown)" val="> 7.30"
compound="CCC(c1ccc(-c2ccc(O)cc2)o1)n1ccnc1 (stereo not shown)" val="> 7.30"
compound=COc1ccc(-c2ccc(C(C)(C)n3ccnc3)s2)cc1 val="6.70 to 7.30"
compound="CCC(c1ccc(-c2ccc(O)cc2)cn1)n1ccnc1 (stereo not shown)" val="> 7.30"
compound="CCC(c1cccc(-c2ccc(OC)cc2)n1)n1ccnc1 (stereo not shown)" val="5.00 to 6.70"

From here, focus on the item given below.
Lookup: pIC50 / human CYP17 (Homo sapiens, UniProt P05093) / CC(c1cnc(-c2ccc(F)cc2F)s1)n1ccnc1 (stereo not shown) 6.70 to 7.30
